- MEASUREMENT_PROTOCOL: Primary qHTS for inhibitors of nuclear receptor binding SET domain protein 2 (NSD2) in an RCH-ACV wild type WT cells (2C) (AID 1645877); further: nearly all actives have a fitted effect of over 70% in size
- MEASUREMENT_CONDITIONS: RCH-ACV (leukaemia line) NSD2 WT (2C) viability, CellTiter-Glo, 72 h; series mostly up to 44.9 µM
Inconclusive results are not listed. Active and inactive are the calls of the source. The call rests on the fitted dose curve; in most records, active means well fitted inhibition curve with a large enough effect; inconclusive means small, poorly fitted or top-dose-only effect; inactive means no such curve, though single readings can be large or run the other way.
Labels: active, inactive

{"COMPOUND": "O=C(Oc1cccc2cccnc12)c1ccccc1", "CLASS_NAME": "inactive"}
{"COMPOUND": "NS(=O)(=O)Cc1noc2ccccc12", "CLASS_NAME": "inactive"}
{"COMPOUND": "O=C(O)CCc1nc2ccccc2[nH]1", "CLASS_NAME": "inactive"}
{"COMPOUND": "C#C[C@]1(O)CC[C@H]2[C@@H]3CCC4=CC(=O)CC[C@@H]4[C@H]3CC[C@@]21CC", "CLASS_NAME": "inactive"}
{"COMPOUND": "CC(C)(C)NCC(O)COc1cccc2c1C[C@H](O)[C@H](O)C2 (stereo not given in full)", "CLASS_NAME": "inactive"}
{"COMPOUND": "COc1ccc(/C=N/NC(=O)c2ccncc2)cc1OC", "CLASS_NAME": "inactive"}
{"COMPOUND": "COc1ccc(CCN(C)CCCN2CCc3cc(OC)c(OC)cc3CC2=O)cc1OC", "CLASS_NAME": "inactive"}
{"COMPOUND": "CC(C)NCC(O)c1ccc2ccccc2c1 (stereo not given)", "CLASS_NAME": "inactive"}
{"COMPOUND": "CCC1Nc2cc(Cl)c(S(N)(=O)=O)cc2S(=O)(=O)N1 (stereo not given)", "CLASS_NAME": "inactive"}
{"COMPOUND": "OCc1ccccn1", "CLASS_NAME": "inactive"}
{"COMPOUND": "CC(=O)NCCCCCC(=O)O", "CLASS_NAME": "inactive"}
{"COMPOUND": "COc1ccc(C(=O)c2ccccc2O)c(O)c1", "CLASS_NAME": "inactive"}
{"COMPOUND": "CC(C)(C)NC[C@H](O)COc1nsnc1N1CCOCC1", "CLASS_NAME": "inactive"}
{"COMPOUND": "OCCOCCN1CCN(C2=Nc3ccccc3Sc3ccccc32)CC1", "CLASS_NAME": "inactive"}
{"COMPOUND": "CCCCN1C[C@H](O)[C@@H](O)[C@H](O)[C@H]1CO", "CLASS_NAME": "inactive"}
{"COMPOUND": "NS(=O)(=O)c1ccc(Cl)c(S(N)(=O)=O)c1", "CLASS_NAME": "inactive"}
{"COMPOUND": "NC(N)=NN=C(/C=C/c1ccc([N+](=O)[O-])o1)/C=C/c1ccc([N+](=O)[O-])o1", "CLASS_NAME": "active"}
{"COMPOUND": "CCOc1ccccc1OCCN[C@H](C)Cc1ccc(OC)c(S(N)(=O)=O)c1", "CLASS_NAME": "inactive"}
{"COMPOUND": "C[C@H]1O[C@@H](O[C@H]2CC[C@@]3(C)[C@H](CC[C@@H]4[C@@H]3C[C@@H](O)[C@]3(C)[C@@H](C5=CC(=O)OC5)CC[C@]43O)C2)C[C@H](O)[C@@H]1O[C@H]1C[C@H](O)[C@H](O[C@H]2C[C@H](O)[C@H](O[C@@H]3O[C@H](CO)[C@@H](O)[C@H](O)[C@H]3O)[C@@H](C)O2)[C@@H](C)O1", "CLASS_NAME": "active"}
{"COMPOUND": "Cn1c(=O)c2[nH]c(Br)nc2n(C)c1=O", "CLASS_NAME": "inactive"}
{"COMPOUND": "COP(=O)(OC)OC(c1ccc(Cl)cc1)P(=O)(OC)OC (stereo not given)", "CLASS_NAME": "inactive"}
{"COMPOUND": "Cc1cc(-c2ccccc2)nnc1NCCN1CCOCC1", "CLASS_NAME": "inactive"}
{"COMPOUND": "CN1CCc2cccc3c2[C@H]1Cc1ccc(O)c(O)c1-3", "CLASS_NAME": "active"}
{"COMPOUND": "CCN(CC)CCNC(=O)c1cc(Br)c(N)cc1OC", "CLASS_NAME": "inactive"}
{"COMPOUND": "CC(=O)Nc1ccc(OC(=O)c2ccccc2OC(C)=O)cc1", "CLASS_NAME": "inactive"}
